Numbers sourced from patent US8513297B2.

molecular target: PPARγ (Homo sapiens, UniProt P37231); construct: Either way it is a handle and not a second protein; assay: Crossover-curve PPAR transactivation test, PPARγ; details: HeLN cells stably transfected with Gal-hPPARγ and luciferase reporter; Schild regression against reference agonist; n.a. means not active; read-out: PPARγ Kd app
Sequence (P37231 238-505 limits assumed): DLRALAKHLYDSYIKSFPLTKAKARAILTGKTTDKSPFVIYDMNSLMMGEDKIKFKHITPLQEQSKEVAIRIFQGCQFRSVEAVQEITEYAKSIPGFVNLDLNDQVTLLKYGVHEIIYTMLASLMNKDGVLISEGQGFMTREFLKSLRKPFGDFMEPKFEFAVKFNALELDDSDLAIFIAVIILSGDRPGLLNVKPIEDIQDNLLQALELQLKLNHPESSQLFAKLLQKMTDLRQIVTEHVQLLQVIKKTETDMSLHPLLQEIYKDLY
pKd: −log10 of the molar value. Structures can show the parent of a compound that is named as a salt.
Reported pKd values follow for various compounds

{"compound": "CCCCCCCNC(=O)N(C)c1cccc(-c2ccc(CCC(=O)O)cc2OCCCC)n1 [Example 12, hydrochloride]", "pKd": 7.82}
{"compound": "CCCCCCCC(=O)N(C)Cc1cc(-c2ccc(CCC(=O)O)cc2OCCCC)cs1", "pKd": 8.70}
{"compound": "CCCCCCCNC(=O)N(C)c1cccc(-c2ccc(CCC(=O)O)cn2)c1", "pKd": 7.22}
{"compound": "CCCCOc1cc(CCC(=O)O)ccc1-c1csc(CN(C)C(=O)c2cccc(OC)c2)c1", "pKd": 7.52}
{"compound": "CCCCCCCC(=O)N(C)Cc1cccc(-c2ccc(CCC(=O)O)s2)c1", "pKd": 6.30}
{"compound": "CCCCCNC(=O)N(C)c1cccc(-c2ccc(CCC(=O)O)cc2OCCCC)n1 [Example 11, hydrochloride]", "pKd": 6.92}
{"compound": "CCCCCCCC(=O)N(C)Cc1cccc(-c2ccc(/C=C/C(=O)O)s2)c1", "pKd": 6.00}
{"compound": "CCCCCCCNC(=O)N(C)c1cccc(-c2ccc(CCC(=O)O)cc2OCC)n1 [Example 13, hydrochloride]", "pKd": 6.92}

====

Target: PPARδ (Homo sapiens, UniProt Q03181)
Construct: Either way it is a handle and not a second protein
Sequence (Q03181 211-441 limits assumed): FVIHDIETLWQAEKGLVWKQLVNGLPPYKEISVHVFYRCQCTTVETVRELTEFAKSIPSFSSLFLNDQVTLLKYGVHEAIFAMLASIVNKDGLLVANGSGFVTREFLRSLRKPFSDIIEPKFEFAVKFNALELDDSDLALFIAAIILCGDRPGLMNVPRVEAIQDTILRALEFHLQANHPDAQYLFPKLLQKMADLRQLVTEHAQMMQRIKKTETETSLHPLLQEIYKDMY
Assay: Crossover-curve PPAR transactivation test, PPARδ
Conditions: HeLN cells stably transfected with Gal-hPPARδ and luciferase reporter; Schild regression against reference agonist; n.a. means not active; read-out: PPARδ Kd app
Procedure: The activation of PPAR receptors with an agonist (activator) in HeLN cells leads to the expression of a reporter gene, luciferase, which, in the presence of a substrate, generates light. The modulation of the PPAR receptors is measured by quantifying the luminescence produced after incubating the cells in the presence of a reference agonist. The ligands displace the agonist from its site. The measurement of the activity is performed by quantifying the light produced. […]
Where a name gives a salt, the structure may show the parent alone.
measurement-name: Kd (µM)

{"compound": "CCCCCCCNC(=O)N(C)c1cccc(-c2ccc(CCC(=O)O)cc2OCC)n1 [Example 13, hydrochloride]", "numeric-value": 8}
{"compound": "CCCCCCCNC(=O)N(C)c1cccc(-c2ccc(CCC(=O)O)cc2)n1 [Example 6]", "numeric-value": 4}

====

target: PPARγ (Homo sapiens, UniProt P37231); construct: Either way it is a handle and not a second protein; test: Crossover-curve PPAR transactivation test, PPARγ; assay type: cell-based; conditions: HeLN cells stably transfected with Gal-hPPARγ and luciferase reporter; Schild regression against reference agonist; n.a. means not active; read-out: PPARγ Kd app
pKd: −log10 of the molar value.
measurement-name: pKd

{"molecule": "CCCCCCCNC(=O)N(C)c1ccnc(-c2ccc(CCC(=O)O)cc2)c1 [Example 8, acetate]", "numeric-value": 6.00}
{"molecule": "CCCCOc1cc(CCC(=O)O)ccc1-c1csc(CN(C)C(=O)c2ccc(OC)cc2)c1", "numeric-value": 7.52}
{"molecule": "CCCCCCCNC(=O)N(C)c1cccc(-c2ccc(CCC(=O)O)cc2)n1", "numeric-value": 6.60}

====

Reported Kd values follow for various compounds
molecular target: PPARα (Homo sapiens); construct: Either way it is a handle and not a second protein; assay: Crossover-curve PPAR transactivation test, PPARα; settings: HeLN cells stably transfected with Gal-hPPARα and luciferase reporter; Schild regression against reference agonist; n.a. means not active; read-out: PPARα Kd app
Sequence (Q07869 200-468 limits assumed): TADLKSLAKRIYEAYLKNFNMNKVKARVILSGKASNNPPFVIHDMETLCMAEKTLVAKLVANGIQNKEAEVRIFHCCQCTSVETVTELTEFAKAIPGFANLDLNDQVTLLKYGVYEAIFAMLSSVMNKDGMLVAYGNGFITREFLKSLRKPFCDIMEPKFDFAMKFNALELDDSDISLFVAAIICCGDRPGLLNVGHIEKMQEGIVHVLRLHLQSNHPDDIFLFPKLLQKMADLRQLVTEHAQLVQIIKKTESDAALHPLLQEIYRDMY
Where a name gives a salt, the structure may show the parent alone.

{"compound": "CCCCCNC(=O)N(C)c1cccc(-c2ccc(CCC(=O)O)cc2OCCCC)n1 [Example 11, hydrochloride]", "Kd / µM": 2}
{"compound": "CCCCCCCNC(=O)N(C)c1cccc(-c2ccc(CCC(=O)O)cc2OCC)n1 [Example 13, hydrochloride]", "Kd / µM": 4}
{"compound": "CCCCCCCNC(=O)N(C)c1cccc(-c2ccc(CCC(=O)O)cc2OCCCC)n1 [Example 12, hydrochloride]", "Kd / µM": 4}
